# SUBJECT OF TEST: human MSR1 endogenously expressed on PMA-differentiated THP-1 cells (human) (UniProt P21757)
# Sequence (P21757 whole entry): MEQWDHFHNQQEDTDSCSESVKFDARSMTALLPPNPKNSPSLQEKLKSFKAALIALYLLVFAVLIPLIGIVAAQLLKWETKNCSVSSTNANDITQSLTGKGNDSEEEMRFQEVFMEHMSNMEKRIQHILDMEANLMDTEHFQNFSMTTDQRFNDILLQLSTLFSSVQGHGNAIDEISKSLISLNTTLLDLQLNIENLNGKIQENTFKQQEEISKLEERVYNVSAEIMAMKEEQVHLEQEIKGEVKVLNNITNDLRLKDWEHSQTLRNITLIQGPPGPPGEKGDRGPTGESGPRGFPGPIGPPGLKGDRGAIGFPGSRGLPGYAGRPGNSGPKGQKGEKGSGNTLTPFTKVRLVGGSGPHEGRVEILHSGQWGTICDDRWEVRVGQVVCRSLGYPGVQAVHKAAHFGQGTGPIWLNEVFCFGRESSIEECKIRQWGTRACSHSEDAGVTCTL
# EXPERIMENT: imaging of PMA-differentiated THP-1 cells, 10 ug/mL antibody, Alexa 488 secondary
PROPERTY MEASURED: Total Binding at 37° C.
For clarity, give the value followed by its unit.

Challenge: May I ask what Total Binding at 37° C. has been recorded for H1H21227N-N297Q (antibody, human IgG1, V domains shown) VH: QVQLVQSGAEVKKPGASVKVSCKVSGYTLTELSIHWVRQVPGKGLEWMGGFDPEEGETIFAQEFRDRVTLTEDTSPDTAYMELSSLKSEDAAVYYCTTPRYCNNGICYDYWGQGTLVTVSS VL: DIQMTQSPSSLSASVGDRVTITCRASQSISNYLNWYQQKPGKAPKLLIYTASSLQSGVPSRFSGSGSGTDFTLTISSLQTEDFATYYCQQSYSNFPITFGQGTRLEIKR ?
Response given: 4.11e+06 RFU
